Assay: The concentration required to inhibit the binding of [3H]ATRA to retinoic acid receptor in human promyelocytic leukemia cells
pIC50: −log10 of the molar value.
measure name: pIC50

> print(dat)
                           molecular.string  observed.value
1  CC(C)Oc1cc2c(cc1-c1ccccc1)CCc1c(-c3ccc(C(=O)O)cc3)cn(Cc3cccnc3)c1-2            7.52
2  CC1(C)CCC(C)(C)c2cc3c(cc21)CCc1c(-c2ccc(C(=O)O)cc2)c[nH]c1-3            7.49
